Molecular target: T1, HhpR (Pyrococcus yayanosii A1, UniProt F8AFU3 1-281)
T1 sequence: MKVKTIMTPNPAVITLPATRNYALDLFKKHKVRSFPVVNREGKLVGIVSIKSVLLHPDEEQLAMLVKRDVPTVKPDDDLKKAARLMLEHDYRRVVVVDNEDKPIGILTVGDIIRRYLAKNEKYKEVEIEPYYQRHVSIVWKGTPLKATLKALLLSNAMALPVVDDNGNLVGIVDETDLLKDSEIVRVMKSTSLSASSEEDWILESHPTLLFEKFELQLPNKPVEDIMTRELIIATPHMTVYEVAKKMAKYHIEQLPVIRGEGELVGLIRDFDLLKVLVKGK
Experiment: fluorescence polarization
Metric name: Kd (nM)
Response body: numeric value in nM, unit text excluded.

Specify measured Kd for 44-bp Phhp (dsDNA) DNA 1: CATATAAAAATTGTTGGGCAAATCTGCCCAGAAAAGCTTAAAAG DNA 2: CTTTTAAGCTTTTCTGGGCAGATTTGCCCAACAATTTTTATATG . 1900
